Measured pEC50, listed per entry for reference.
Target: Human Full Length PARG (Homo sapiens (Human))
Assay: PARG in vitro enzyme assay (TR-FRET)
Format: biochemical
Settings: read-out: PARG_EC50_ENZYME
// scale note: pEC50 = -log10(conc_M); give the bare number

Some compounds with recorded pEC50:
- Record Smiles: "CCn1c(=O)n(-c2nnc(C(F)F)o2)c2cc(S(=O)(=O)NC3(CF)CC3)c(F)cc21"
  pEC50: 6.95
- Record Smiles: "Cc1cc(C)cc(Cn2c(=O)n(C)c3cc(S(=O)(=O)NC4(C)CC4)ccc32)c1"
  pEC50: 5.29
- Record Smiles: "Cn1c(=O)n(Cc2cccc(C#N)c2)c2ccc(S(=O)(=O)NC3(C)CC3)cc21"
  pEC50: 5.47
- Record Smiles: "CCNC(=O)n1c(=O)n(C)c2ccc(S(=O)(=O)NC3(C)CC3)cc21"
  pEC50: 5.16
- Record Smiles: "CC(=O)NCc1nc2ccc(S(=O)(=O)NC3(C)CC3)cc2n1-c1nnc(C)s1"
  pEC50: 5.11
- Record Smiles: "CCn1c(=O)n(-c2nnc(C)s2)c2cc(S(=O)(=O)NC3(C#N)CC3)ccc21"
  pEC50: 5.98
- Record Smiles: "Cn1c(=O)n(-c2nnc(C(F)F)s2)c2cc(S(=O)(=O)NC3(C)CC3)c(F)cc21"
  pEC50: 6.85
- Record Smiles: "Cc1nnc(-n2c(=O)n(C)c3cc(F)c(S(=O)(=O)NC4(C)CC4)cc32)o1"
  pEC50: 6.12
- Record Smiles: "Cc1cc(Cc2nc3ccc(S(=O)(=O)NC4(C)CC4)cc3n2-c2nnc(C)s2)on1"
  pEC50: 6.17
- Record Smiles: "Cc1nnc(-n2c(=O)n(Cc3ccc(F)cc3)c3ccc(S(=O)(=O)NC4(C)CC4)cc32)s1"
  pEC50: 6.20

Reported pEC50, compound `Cn1ccc(Cn2c(=O)n(C)c3cc(S(=O)(=O)NC4(C)CC4)ccc32)n1` : ____
5.05

Next: `COCCn1c(=O)n(-c2nnc(C(F)F)s2)c2cc(S(=O)(=O)NC3(C)CC3)c(F)cc21`
7.00

Next: `Cn1c(=O)n(Cc2cccnc2)c2ccc(S(=O)(=O)NC3(C)CC3)cc21`
5.17

Next: `Cc1nnc(-n2c(=O)n(CCN3CCCC3)c3ccc(S(=O)(=O)NC4(C)CC4)cc32)s1`
5.95

Next: `Cc1nc(C)c(Cn2c(=O)n(-c3cccnn3)c3cc(S(=O)(=O)NC4(C)CC4)ccc32)s1`
6.06

Next: `CCOC(=O)n1c(=O)n(Cc2ccc(F)cc2)c2ccc(S(=O)(=O)NC3(C)CC3)cc21`
6.03

* * *

Target: Human Full Length PARG (Homo sapiens (Human), UniProt Q86W56)
Sequence (Q86W56 whole entry): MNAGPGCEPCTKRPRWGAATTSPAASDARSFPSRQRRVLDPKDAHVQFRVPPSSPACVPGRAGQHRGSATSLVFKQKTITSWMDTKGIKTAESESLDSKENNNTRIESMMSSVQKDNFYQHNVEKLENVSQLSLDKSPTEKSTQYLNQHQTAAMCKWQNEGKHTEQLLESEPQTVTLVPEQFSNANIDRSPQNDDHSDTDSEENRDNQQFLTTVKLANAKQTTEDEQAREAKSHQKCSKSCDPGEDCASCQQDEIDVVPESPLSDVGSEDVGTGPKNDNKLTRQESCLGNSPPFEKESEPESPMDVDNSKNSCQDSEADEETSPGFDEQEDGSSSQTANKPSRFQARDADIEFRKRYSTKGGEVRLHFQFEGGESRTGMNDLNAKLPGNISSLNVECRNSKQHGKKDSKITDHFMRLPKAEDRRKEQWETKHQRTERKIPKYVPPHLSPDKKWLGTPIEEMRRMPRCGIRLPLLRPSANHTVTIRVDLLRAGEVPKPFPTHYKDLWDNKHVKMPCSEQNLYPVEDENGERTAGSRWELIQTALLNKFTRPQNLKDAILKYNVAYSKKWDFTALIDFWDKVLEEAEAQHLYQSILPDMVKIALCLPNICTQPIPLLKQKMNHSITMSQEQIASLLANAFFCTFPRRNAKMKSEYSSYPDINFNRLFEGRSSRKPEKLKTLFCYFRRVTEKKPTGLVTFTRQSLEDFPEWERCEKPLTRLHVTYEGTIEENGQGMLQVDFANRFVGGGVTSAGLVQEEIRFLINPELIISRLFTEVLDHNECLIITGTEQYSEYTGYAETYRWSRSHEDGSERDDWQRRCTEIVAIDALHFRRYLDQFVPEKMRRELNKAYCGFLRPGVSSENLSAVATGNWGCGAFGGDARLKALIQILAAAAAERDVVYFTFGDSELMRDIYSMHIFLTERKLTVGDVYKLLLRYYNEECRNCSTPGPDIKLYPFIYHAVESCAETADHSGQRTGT
Assay: PARG in vitro enzyme assay (TR-FRET)
Settings: read-out: PARG_EC50_ENZYME
Endpoint Name: pEC50
// scale note: pEC50 = -log10(conc_M); give the bare number

Some compounds with recorded pEC50:
- Record Smiles: "Cc1nnc(-n2c(=O)n(CCN3CCOCC3)c3ccc(S(=O)(=O)NC4(C)CC4)cc32)o1"
  pEC50: 5.95
- Record Smiles: "Cc1nnc(-n2c(=O)[nH]c3ccc(S(=O)(=O)NC4(C)CC4)cc32)s1"
  pEC50: 6.14
- Record Smiles: "Cc1nnc(-n2c(=O)n(CCF)c3cc(F)c(S(=O)(=O)NC4(C)CC4)cc32)o1"
  pEC50: 6.38
- Record Smiles: "Cn1c(=O)n(-c2nccs2)c2cc(S(=O)(=O)NC3(C)CC3)ccc21"
  pEC50: 5.54
- Record Smiles: "C#CCn1c(=O)n(-c2nnc(C)s2)c2cc(S(=O)(=O)NC3(C)CC3)ccc21"
  pEC50: 6.58

Reported pEC50, compound `Cc1nsc(-n2c(=O)n(CC#N)c3ccc(S(=O)(=O)NC4(CF)CC4)cc32)n1` : ____
5.95

Next: `CC1(NS(=O)(=O)c2cc3c(cc2F)n(CCF)c(=O)n3-c2nnc(C(F)F)s2)CC1`
6.81

Next: `CC1(NS(=O)(=O)c2ccc3c(c2)N(C(=O)CN2CCNC2=O)CC3)CC1`
5.28

* * *

Target: Human Full Length PARG (Homo sapiens (Human), UniProt Q86W56)
Test: PARG in vitro enzyme assay (TR-FRET)
Conditions: read-out: PARG_EC50_ENZYME
Measured EC50, listed per entry for reference.
Express it in nM; write the number only.

Some molecules with recorded EC50:
- Record Smiles: "CCOC(=O)c1oc2ccc(S(=O)(=O)NC3(C)CC3)cc2c1C"
  Measurement Unit: "nM"
  Reading: 15800
- Record Smiles: "Cc1nnc(-n2c(=O)[nH]c3cc(F)c(S(=O)(=O)NC4(CF)CC4)cc32)o1"
  Measurement Unit: "nM"
  Reading: 1240
- Record Smiles: "Cc1nnc(-n2c(=O)n(CCN(C)C)c3ccc(S(=O)(=O)NC4(C)CC4)cc32)s1"
  Measurement Unit: "nM"
  Reading: 684

Form: Entry = `CC1(NS(=O)(=O)c2ccc3c(c2)n(-c2ccccc2)c(=O)n3CC2CC2)CC1` | System = Human Full Length PARG (Homo sapiens (Human), UniProt Q86W56) | EC50 = ____
2910

* * *

Molecular target: PARG in HeLa cell line (Homo sapiens (Human))
Sequence (Q86W56 whole entry): as above
Experiment: PARG cell assay (nuclear PAR chains after MMS, immunofluorescence)
Format: cell-based
Conditions: HeLa cells, MMS 50 μg/mL; read-out: PARG Cell IC50 Geomean
pIC50: −log10 of the molar value.
Please enter T where pIC50 is greater than or equal to 6, and F where it is lower.

- Compound: "Cc1nnc(-n2c(=O)n(Cc3ncco3)c3ccc(S(=O)(=O)NC4(C)CC4)cc32)s1 [Example 101]"
  Group: "T"
- Compound: "Cc1ccc(-n2c(=O)n(C)c3cc(F)c(S(=O)(=O)NC4(C)CC4)cc32)nn1 [Example 205]"
  Group: "F"
- Compound: "CN(C)CCCn1c(=O)n(-c2nnc(C(F)F)s2)c2cc(S(=O)(=O)NC3(CF)CC3)ccc21 [Example 170]"
  Group: "T"
- Compound: "Cc1nc(C)c(Cn2c(=O)n(-c3nccs3)c3cc(S(=O)(=O)NC4(C)CC4)ccc32)s1 [Example 111]"
  Group: "T"
- Compound: "Cn1c(=O)n(-c2nnc(C(F)F)s2)c2cc(S(=O)(=O)NC3(CF)CC3)ccc21 [Example 181]"
  Group: "T"

Evaluate CCOC(=O)c1oc2ccc(S(=O)(=O)NC3(C)CC3)cc2c1C [Example 218] : pIC50 at minimum 6?
F

Next: COCCCn1c(=O)n(-c2nnc(C)s2)c2cc(S(=O)(=O)NC3(CF)CC3)ccc21 [Example 187]
T

Next: O=c1n(CCF)c2cc(F)c(S(=O)(=O)NC3(CF)CC3)cc2n1-c1nnc(C(F)F)s1 [Example 216]
T

Next: Cc1nnc(-n2c(=O)n(CC#N)c3ccc(S(=O)(=O)NC4(C)CC4)cc32)s1 [Example 166]
T

Next: Cn1c(=O)n(-c2nnc(C(F)F)o2)c2cc(S(=O)(=O)NC3(CF)CC3)ccc21 [Example 196]
T

* * *

Measured pIC50, listed per entry for reference.
Target: PARG in HeLa cell line (Homo sapiens (Human))
Experiment: PARG cell assay (nuclear PAR chains after MMS, immunofluorescence)
Format: cell-based
Settings: HeLa cells, MMS 50 μg/mL; read-out: PARG Cell IC50 Geomean
// scale note: pIC50 = -log10(conc_M); give the bare number

Some compounds with recorded pIC50:
- Compound: "COCCn1c(=O)n(-c2nc(C)ns2)c2cc(S(=O)(=O)NC3(C)CC3)ccc21 [Example 182]"
  Target Under Test: "PARG in HeLa cell line (Homo sapiens (Human))"
  pIC50: 6.27
- Compound: "COCCCn1c(=O)n(-c2nnc(C)s2)c2cc(S(=O)(=O)NC3(C)CC3)ccc21 [Example 148]"
  Target Under Test: "PARG in HeLa cell line (Homo sapiens (Human))"
  pIC50: 6.62
- Compound: "Cn1c(=O)n(-c2nnc(C(F)F)s2)c2cc(S(=O)(=O)NC3(CF)CC3)c(F)cc21 [Example 174]"
  Target Under Test: "PARG in HeLa cell line (Homo sapiens (Human))"
  pIC50: 7.39

Reported pIC50, compound Cc1cc(Cn2c(=O)n(-c3nnc(C(F)F)s3)c3cc(S(=O)(=O)NC4(CF)CC4)ccc32)n(C)n1 [Example 164] : ____
6.96

Next: Cc1nsc(-n2c(=O)n(C)c3cc(F)c(S(=O)(=O)NC4(CF)CC4)cc32)n1 [Example 172]
5.68

Next: Cc1nsc(-n2c(=O)n(CCN(C)C)c3ccc(S(=O)(=O)NC4(CF)CC4)cc32)n1 [Example 186]
5.51

Next: COCCn1c(=O)n(-c2nnc(C(F)F)s2)c2cc(S(=O)(=O)NC3(C)CC3)c(F)cc21 [Example 168]
7.49

Next: COCCn1c(=O)n(-c2nnc(C)s2)c2cc(S(=O)(=O)NC3(C)CC3)ccc21 [Example 147]
6.36

Next: COCCn1c(=O)n(-c2nnc(C(F)F)s2)c2cc(S(=O)(=O)NC3(C#N)CC3)ccc21 [Example 162]
6.75

Next: Cc1nnc(-n2c(=O)[nH]c3ccc(S(=O)(=O)NC4(C#N)CC4)cc32)s1 [Example 157]
5.46

Next: COCCn1c(=O)n(-c2nc(C)ns2)c2cc(S(=O)(=O)NC3(CF)CC3)ccc21 [Example 184]
6.15

Next: Cc1cc(Cn2c(=O)n(-c3nnc(C(F)F)s3)c3cc(S(=O)(=O)NC4(C#N)CC4)ccc32)n(C)n1 [Example 165]
6.90
